Value source: ChEMBL document CHEMBL2346557

protocol_text: Tmax in beagle dog at 30 mg/kg, po
Type: ADME, organism-based, Canis lupus familiaris
Set-up: dose 30 mg/kg, route oral
protocol_conditions: in vivo
quantity_kind: Tmax (h)
Give bare numbers, in h.

Problem: Endpoint output: Tmax of C[C@@H]1C[C@H]2[C@@H]3CCC4=CC(=O)C=C[C@]4(C)C3=CC[C@]2(C)[C@@]1(O)C(=O)CO . Value?
Result: 6

---

Provide the reported remaining at 1 h, 2 µM of each item.
protocol_text: Metabolic stability in mouse liver microsomes assessed as compound remaining at 2 uM measured at 1 hr
Type: ADME, Microsome
protocol_conditions: read-out: Stability
Phrase the answer as number then unit, nothing more needed.

C[C@@H]1C[C@H]2[C@@H]3CCC4=CC(=O)C=C[C@]4(C)C3=CC[C@]2(C)[C@@]1(O)C(=O)CO    88.8%

Lab note: next compound to report on.
Problem: Endpoint output: remaining at 1 h, 2 µM of C[C@@H]1C[C@H]2[C@@H]3CCC4=CC(=O)C=C[C@]4(C)C3=CC[C@]2(C)[C@H]1C(=O)CO . Value?
Result: 34%
